# TESTED_SYSTEM: LXRβ (Homo sapiens)
# Construct: Co-transfection expression plasmids, comprising full-length LXRα (pCMX-h LXRα[…] or LXRβ (pCMX-hLXRβ))
# Sequence (P55055 whole entry): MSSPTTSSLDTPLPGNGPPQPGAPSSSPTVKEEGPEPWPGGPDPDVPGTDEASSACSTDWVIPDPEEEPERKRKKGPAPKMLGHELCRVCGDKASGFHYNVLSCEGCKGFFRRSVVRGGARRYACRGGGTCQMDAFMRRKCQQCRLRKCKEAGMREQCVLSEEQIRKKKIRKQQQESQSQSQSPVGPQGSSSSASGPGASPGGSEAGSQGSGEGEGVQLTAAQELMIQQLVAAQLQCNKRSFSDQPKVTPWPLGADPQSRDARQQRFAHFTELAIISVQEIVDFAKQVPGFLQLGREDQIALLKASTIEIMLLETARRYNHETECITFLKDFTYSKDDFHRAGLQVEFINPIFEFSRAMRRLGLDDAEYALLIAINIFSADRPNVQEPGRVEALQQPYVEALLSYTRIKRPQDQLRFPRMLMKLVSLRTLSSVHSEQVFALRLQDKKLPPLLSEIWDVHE
# Sequence (P19793 whole entry partner): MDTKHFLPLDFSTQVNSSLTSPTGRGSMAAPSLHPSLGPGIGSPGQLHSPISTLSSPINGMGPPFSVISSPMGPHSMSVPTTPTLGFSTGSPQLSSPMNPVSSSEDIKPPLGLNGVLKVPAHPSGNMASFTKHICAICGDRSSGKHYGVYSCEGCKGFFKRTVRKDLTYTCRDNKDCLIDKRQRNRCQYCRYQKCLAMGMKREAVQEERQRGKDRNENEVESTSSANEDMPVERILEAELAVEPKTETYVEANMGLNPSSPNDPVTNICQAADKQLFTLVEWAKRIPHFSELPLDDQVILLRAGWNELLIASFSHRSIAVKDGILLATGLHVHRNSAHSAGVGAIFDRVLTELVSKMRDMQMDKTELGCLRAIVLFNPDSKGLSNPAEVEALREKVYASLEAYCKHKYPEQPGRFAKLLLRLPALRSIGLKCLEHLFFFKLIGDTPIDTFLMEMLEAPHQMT
# MEASUREMENT_PROTOCOL: Co-transfection assay (LXRE luciferase reporter), LXRβ
# EXPERIMENTAL_CONDITIONS: CV-1 cells transfected with pCMX-hLXRβ and LXREx1-Tk-Luciferase; 20 hours incubation
VALUE_KIND: EC50
Just so you know, I need the unit written after the number.

Solved entries (count: 2):
| MOLECULE | TESTED_SYSTEM | EC50 |
| --- | --- | --- |
| Cc1nc(C(F)(F)C(C)C)cn1-c1ccc(-c2cccc(S(C)(=O)=O)c2)cc1-n1nncc1-c1ccc(OC(F)(F)F)cc1 [Example 164] | LXRβ (Homo sapiens) | 203 nM |
| Cc1nc(C(F)(F)F)cn1-c1ccc(-c2cccc(S(N)(=O)=O)c2)cc1-n1nncc1-c1ccc(OC(F)(F)F)cc1 [Example 44] | LXRβ (Homo sapiens) | 1270 nM |

Give reported EC50 value for COCCc1nc(-c2cc(-c3cc(F)c(CO)c(S(C)(=O)=O)c3)ccc2-n2cc(C(F)(F)F)nc2C)c(-c2ccc(OC(F)(F)F)cc2)o1 [Example 527]
107 nM
